target_desc: BRD4-BD2 (Homo sapiens (Human), UniProt O60885)
test_details: competitive TR-FRET assay, BET-BD with acetylated peptide ligand
Type: binding
experimental_setup: BRD4-BD2; Table 11 additional modifications; read-out: 4.2 EC50
reported_property: EC50 (µM)

// known answers, use as guide
1) CC(=O)N1c2ccc(-c3cccc(NC(=O)OC(C)(C)C)c3)cc2[C@H](NC(=O)OC(C)C)C[C@@H]1C | 3.5
2) CC(=O)Nc1cccc(-c2ccc3c(c2)[C@H](NC(=O)c2ccc(C(F)(F)F)cc2)C[C@H](C)N3C(C)=O)c1 | 75

(A) CC(=O)N1c2ccc(-c3cccn(C)c3=O)cc2[C@H](NC(=O)OC(C)C)C[C@@H]1C
(B) CC(=O)Nc1cccc(-c2ccc3c(c2)[C@H](Nc2ccc([N+](=O)[O-])cc2)C[C@H](C)N3C(C)=O)c1
(Q) // task: argmin of EC50 over [ A , B ] Let me know the label of the one you choose.
(A) B

* * *

target_desc: BRD3-BD1 (Homo sapiens (Human), UniProt Q15059)
Sequence (Q15059 34-140): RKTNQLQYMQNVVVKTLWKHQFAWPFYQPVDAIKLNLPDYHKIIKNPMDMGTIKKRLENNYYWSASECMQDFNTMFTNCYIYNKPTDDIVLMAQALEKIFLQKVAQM
test_details: competitive TR-FRET assay, BET-BD with acetylated peptide ligand
Assay type: binding
experimental_setup: BRD3-BD1; Table 11 additional modifications; read-out: 3.1 EC50
pEC50: −log10 of the molar value.
reported_property: pEC50

// known answers, use as guide
1) CC(=O)Nc1cccc(-c2ccc3c(c2)[C@H](NC(=O)CCc2ccccc2)C[C@H](C)N3C(C)=O)c1 [compound 74] | 5.01
2) CC(=O)Nc1cccc(-c2ccc3c(c2)[C@H](NC2CCCCCC2)C[C@H](C)N3C(C)=O)c1 [compound 37] | 5.92
3) CC(=O)Nc1cccc(-c2ccc3c(c2)[C@H](NC2CCCC2)C[C@H](C)N3C(C)=O)c1 [compound 38] | 5.43
4) CC(=O)Nc1cccc(-c2ccc3c(c2)[C@H](Nc2cccc4ncccc24)C[C@H](C)N3C(C)=O)c1 [compound 31] | 6.54
5) CC(=O)N1c2ccc(-c3cccc(NC(=O)C4CCC(C)CC4)c3)cc2[C@H](NC(=O)OC(C)C)C[C@@H]1C (stereo partly drawn) [compound 102] | 6.28
6) COC(=O)c1ccoc1-c1ccc2c(c1)[C@H](NC(=O)OC(C)C)C[C@H](C)N2C(C)=O [compound 82] | 5.57
7) CC(=O)Nc1cccc(-c2ccc3c(c2)[C@H](Nc2cncnc2)C[C@H](C)N3C(C)=O)c1 [compound 16] | 5.19
8) CC(=O)N1c2ccc(-c3cccc(NC4CCCC4)c3)cc2[C@H](Nc2ccccc2OC(F)(F)F)C[C@@H]1C [compound 154] | 4.57
9) CC(=O)Nc1cccc(-c2ccc3c(c2)[C@H](NC(=O)c2ccc(F)cc2)C[C@H](C)N3C(C)=O)c1 [compound 68] | 4.39
10) CC(=O)N1c2ccc(C3=CCCO3)cc2[C@H](NC(=O)OC(C)C)C[C@@H]1C [compound 85] | 5.32

(A) CCC(=O)Nc1cccc(-c2ccc3c(c2)[C@H](NC(=O)OC(C)C)C[C@H](C)N3C(C)=O)c1 [compound 115]
(B) CC(=O)Nc1cccc(-c2ccc3c(c2)[C@H](Nc2ccc(-c4nnco4)cc2)C[C@H](C)N3C(C)=O)c1 [compound 34]
(Q) // task: argmin of pEC50 over [ A , B ] Let me know the label of the one you choose.
(A) B

(1) CC(=O)N1c2ccc(-c3ccc4occc(=O)c4c3)cc2[C@H](NC(=O)OC(C)C)C[C@@H]1C [compound 80]
(2) CC(=O)Nc1cccc(-c2ccc3c(c2)[C@H](NCCCc2ccccc2)C[C@H](C)N3C(C)=O)c1 [compound 70]
(Q) // compare measured pEC50, left 1 , right 2 , return larger Let me know the label of the one you choose.
(A) 1
(1: 5.68, 2: 5.00)

* * *

target_desc: BRD2-BD1 (Homo sapiens (Human), UniProt P25440)
Sequence (P25440 74-180): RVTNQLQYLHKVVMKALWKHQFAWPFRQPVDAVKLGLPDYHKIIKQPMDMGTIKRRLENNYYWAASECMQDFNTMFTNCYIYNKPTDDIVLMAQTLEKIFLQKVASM
test_details: competitive TR-FRET assay, BET-BD with acetylated peptide ligand
experimental_setup: Table 2, inhibitor potency by TR-FRET
Experimental: Inhibitor potency was determined using a competitive TR-FRET assay as detailed herein, measuring interaction of the respective BET-BD with an acetylated peptide ligand (Table 2).
pIC50: −log10 of the molar value.
reported_property: pIC50

(1) CC(=O)N1c2ccc(-c3ccc[nH]3)cc2[C@H](NC(=O)OC(C)C)C[C@@H]1C
(2) CC(=O)N1c2ccc(-c3ccoc3)cc2[C@H](NC(=O)OC(C)C)C[C@@H]1C
(Q) // compare measured pIC50, left 1 , right 2 , return larger Let me know the label of the one you choose.
(A) 1

* * *

target_desc: BRDT (Homo sapiens, UniProt Q58F21)
test_details: competitive TR-FRET assay, BET-BD with acetylated peptide ligand
Type: binding
experimental_setup: BRDT; Table 11 additional modifications; read-out: BRDT EC50
pEC50: −log10 of the molar value.
reported_property: pEC50

1) CC(=O)Nc1cccc(-c2ccc3c(c2)[C@H](Nc2ccc(OC(F)(F)F)cc2)C[C@H](C)N3C(C)=O)c1 | 5.00
2) CC(=O)N(C)c1cccc(-c2ccc3c(c2)[C@H](Nc2ccc(Cl)cc2)C[C@H](C)N3C(C)=O)c1 | 5.44
3) COC(=O)c1ccc(N[C@@H]2C[C@H](C)N(C(C)=O)c3ccc(-c4cccc(NC(C)=O)c4)cc32)c(C)c1 | 5.48
4) CCCNc1cccc(-c2ccc3c(c2)[C@H](NC(=O)OC(C)C)C[C@H](C)N3C(C)=O)c1 | 5.41

(P) CC(=O)Nc1cccc(-c2ccc3c(c2)[C@H](Nc2ccc(N(C)C)cc2)C[C@H](C)N3C(C)=O)c1
(Q) CC(=O)Nc1cccc(-c2ccc3c(c2)[C@H](Nc2ccc(C#N)cc2)C[C@H](C)N3C(C)=O)c1
(R) CC(=O)N1c2ccc(-c3cccc(NC(=O)C4CCCCC4)c3)cc2[C@H](NC(=O)OC(C)C)C[C@@H]1C
(S) CC(=O)N1c2ccc(-c3cc4ccccc4[nH]3)cc2[C@H](NC(=O)OC(C)C)C[C@@H]1C
(T) CC(=O)N1c2ccc(-c3cccc(-n4cccn4)c3)cc2[C@H](Nc2ccc(Cl)cc2)C[C@@H]1C
(Q) Which order do these items take when sorted by rising pEC50? List them. I would appreciate it if you listed the labels in the requested order.
(A) T, S, P, R, Q

(A) CC(=O)N1c2ccc(-c3cccc(NC(=O)Cc4ccccc4)c3)cc2[C@H](NC(=O)OC(C)C)C[C@@H]1C
(B) CC(=O)Nc1cccc(-c2ccc3c(c2)[C@H](Nc2cccc(OC(F)(F)F)c2)C[C@H](C)N3C(C)=O)c1
(Q) // compare measured pEC50, left A , right B , return larger Let me know the label of the one you choose.
(A) A

(P) C#CCCNC(=O)c1ccc(N[C@@H]2C[C@H](C)N(C(C)=O)c3ccc(-c4cccc(NC(C)=O)c4)cc32)cc1
(Q) CC(=O)Nc1cccc(-c2ccc3c(c2)[C@H](Nc2cncnc2)C[C@H](C)N3C(C)=O)c1
(Q) // compare measured pEC50, left P , right Q , return larger Let me know the label of the one you choose.
(A) P
(P: 5.72, Q: 4.77)

(P) CC(=O)Nc1cccc(-c2ccc3c(c2)[C@H](NC2CCOCC2)C[C@H](C)N3C(C)=O)c1
(Q) COC(=O)c1ccccc1N[C@@H]1C[C@H](C)N(C(C)=O)c2ccc(-c3cccc(NC(C)=O)c3)cc21
(R) CC(=O)N1c2ccc(-c3cccc(NCC4CCCCC4)c3)cc2[C@H](NC(=O)OC(C)C)C[C@@H]1C
(S) COC(=O)c1ccc(N[C@@H]2C[C@H](C)N(C(C)=O)c3ccc(-c4cccc(OCCN5CCOCC5)c4)cc32)cc1
(T) CC(=O)Nc1cccc(-c2ccc3c(c2)[C@H](Nc2ccc(C(=O)OC(C)(C)C)cc2)C[C@H](C)N3C(C)=O)c1
(Q) Which order do these items take when sorted by rising pEC50? List them. I would appreciate it if you listed the labels in the requested order.
(A) T, P, R, Q, S
(T: 4.89, P: 5.15, R: 5.36, Q: 6.15, S: 6.55)

(P) CC(=O)N1c2ccc(-c3cccc(NC(=O)C(C)C)c3)cc2[C@H](NC(=O)OC(C)C)C[C@@H]1C
(Q) CC(=O)N1c2ccc(-c3cccc(NC(=O)c4ccc(C)cc4)c3)cc2[C@H](NC(=O)OC(C)C)C[C@@H]1C
(Q) // task: argmin of pEC50 over [ P , Q ] Let me know the label of the one you choose.
(A) P
(P: 5.92, Q: 6.29)

(P) COC(=O)c1ccc(N[C@@H]2C[C@H](C)N(C(C)=O)c3ccc(-c4ccnn4C)cc32)cc1
(Q) COc1cc(F)ccc1N[C@@H]1C[C@H](C)N(C(C)=O)c2ccc(-c3ccn(C)n3)cc21
(R) COC(=O)c1ccc(N[C@@H]2C[C@H](C)N(C(C)=O)c3ccc(-c4cccc(NCC5CC5)c4)cc32)cc1
(Q) Order the items by recorded pEC50; the first position goes to the largest value. I would appreciate it if you listed the labels in the requested order.
(A) Q, R, P

(P) CC(=O)N1c2ccc(-c3coc4ccccc34)cc2[C@H](NC(=O)OC(C)C)C[C@@H]1C
(Q) CC(=O)Nc1ccc(-c2ccc3c(c2)[C@H](Nc2ccc(Cl)cc2)C[C@H](C)N3C(C)=O)cc1
(Q) // task: argmin of pEC50 over [ P , Q ] Let me know the label of the one you choose.
(A) P
(P: 4.85, Q: 5.28)
